This listing pairs molecules with measured relative viability.
Tested on: G401
PROCEDURE_DETAILS: relative viability vs DMSO control (72 h) (fraction); higher = more viable cells
EXPERIMENTAL_CONTEXT: 0.01372 µM

STRUCTURE_SMILES: C[C@@H](Oc1cc(-c2cnn(C3CCNCC3)c2)cnc1N)c1c(Cl)ccc(F)c1Cl
relative viability: 1.01
//
STRUCTURE_SMILES: CN1CCN(CCOc2cc(OC3CCOCC3)c3c(Nc4c(Cl)ccc5c4OCO5)ncnc3c2)CC1
relative viability: 1.05
//
STRUCTURE_SMILES: Cc1cn(-c2cc(NC(=O)c3ccc(C)c(Nc4nccc(-c5cnccn5)n4)c3)cc(C(F)(F)F)c2)cn1
relative viability: 1.12
//
STRUCTURE_SMILES: N#Cc1ccnc(N2C(=O)CC[C@H]2C(=O)N(c2cncc(F)c2)[C@H](C(=O)NC2CC(F)(F)C2)c2ccccc2Cl)c1
relative viability: 0.952

---

Tested on: RD
PROCEDURE_DETAILS: standardised AUC of viability dose-response curve (72 h) (fraction (0-1)); higher = less growth inhibition (more resistant)
In this section, each of the compounds is paired with its reported standardised AUC.
MEASURED_PARAMETER: standardised AUC

COMPOUND: C[C@@H]1COC(Nc2ccc3ncnc(Nc4ccc(OCc5nccs5)c(Cl)c4)c3c2)=N1 [VARLITINIB]
MEASURED_PARAMETER: standardised AUC
OBSERVED_MEASUREMENT: 1
--
COMPOUND: CO[C@@H]1[C@H](N(C)C(=O)c2ccccc2)C[C@H]2O[C@]1(C)n1c3ccccc3c3c4c(c5c6ccccc6n2c5c31)C(=O)NC4 [MIDOSTAURIN]
MEASURED_PARAMETER: standardised AUC
OBSERVED_MEASUREMENT: 0.81
--
COMPOUND: Cc1ccc(C(=O)OCc2ccc([C@@H](CN)C(=O)Nc3ccc4cnccc4c3)cc2)c(C)c1 [NETARSUDIL]
MEASURED_PARAMETER: standardised AUC
OBSERVED_MEASUREMENT: 0.923
--
COMPOUND: COc1cc2ncnc(Nc3cccc(Cl)c3F)c2cc1OC(=O)N1CCN(C)C[C@H]1C [AZD-3759]
MEASURED_PARAMETER: standardised AUC
OBSERVED_MEASUREMENT: 0.991
--
COMPOUND: Cc1cn(-c2cc(NC(=O)c3ccc(C)c(Nc4nccc(-c5cccnc5)n4)c3)cc(C(F)(F)F)c2)cn1 [NILOTINIB]
MEASURED_PARAMETER: standardised AUC
OBSERVED_MEASUREMENT: 0.926
--
COMPOUND: COc1cc2ncnc(Nc3ccc(F)c(Cl)c3)c2cc1NC(=O)/C=C/CN1CCCCC1 [DACOMITINIB]
MEASURED_PARAMETER: standardised AUC
OBSERVED_MEASUREMENT: 0.869

---

Listed next: entries and their corresponding relative viability.
Tested on: SK-ES-1
PROCEDURE_DETAILS: relative viability vs DMSO control (72 h) (fraction); higher = more viable cells
EXPERIMENTAL_CONTEXT: 0.01372 µM

MOLECULE: CCN(CCCOc1ccc2c(Nc3cc(CC(=O)Nc4cccc(F)c4)[nH]n3)ncnc2c1)CCOP(=O)(O)O [Barasertib]
relative viability: 0.237
//
MOLECULE: Cc1cn(-c2cc(NC(=O)c3ccc(C)c(Nc4nccc(-c5cnccn5)n4)c3)cc(C(F)(F)F)c2)cn1 [Radotinib]
relative viability: 1.07
//
MOLECULE: COc1cc2ncnc(Nc3ccc(F)c(Cl)c3)c2cc1NC(=O)/C=C/CN1CCCCC1 [Dacomitinib]
relative viability: 1.07
//
MOLECULE: Cc1cc(Nc2ncc(Cl)c(Nc3ccccc3S(=O)(=O)C(C)C)n2)c(OC(C)C)cc1C1CCNCC1 [Ceritinib]
relative viability: 0.961
//
MOLECULE: CO[C@@H]1[C@H](N(C)C(=O)c2ccccc2)C[C@H]2O[C@]1(C)n1c3ccccc3c3c4c(c5c6ccccc6n2c5c31)C(=O)NC4 [Midostaurin]
relative viability: 0.987
//
MOLECULE: COc1cc(OC)cc(N(CCNC(C)C)c2ccc3ncc(-c4cnn(C)c4)nc3c2)c1 [Erdafitinib]
relative viability: 0.957
//
MOLECULE: CN(C)C[C@@H]1CCn2cc(c3ccccc32)C2=C(C(=O)NC2=O)c2cn(c3ccccc23)CCO1 [Ruboxistaurin]
relative viability: 1.07
//
MOLECULE: C1=N/C2=N/c3ccc(OCCN4CCCC4)c(c3)COC/C=C/COCc3cccc(c3)C(=C1)N2 [Pacritinib]
relative viability: 1.07
//
MOLECULE: COc1cc2nccc(Oc3ccc(NC(=O)C4(C(=O)Nc5ccc(F)cc5)CC4)cc3)c2cc1OC [Cabozantinib]
relative viability: 1.04
//
MOLECULE: CO[C@H]1C[C@@H]2CC[C@@H](C)[C@@](O)(O2)C(=O)C(=O)N2CCCC[C@H]2C(=O)O[C@H]([C@H](C)C[C@@H]2CC[C@@H](O)[C@H](OC)C2)CC(=O)[C@H](C)/C=C(\C)[C@@H](O)[C@@H](OC)C(=O)[C@H](C)C[C@H](C)/C=C/C=C/C=C/1C [Rapamycin]
relative viability: 0.564
//
MOLECULE: Cc1ccc(NC(=O)c2ccc(CN3CCN(C)CC3)cc2)cc1Nc1nccc(-c2cccnc2)n1 [Imatinib]
relative viability: 0.983
//
MOLECULE: C[C@H]1Oc2cc(cnc2N)-c2c(nn(C)c2C#N)CN(C)C(=O)c2ccc(F)cc21 [Lorlatinib]
relative viability: 1.01
